# TARGET_DESC: UniProt P01308
# Sequence (P01308 25-54 limits assumed): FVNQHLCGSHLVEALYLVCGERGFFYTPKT
# Sequence (P01308 90-110 limits assumed): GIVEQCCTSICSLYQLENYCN
READOUT_LABEL: Kd (µM)
Field format: number, assumed µM, no unit text.

For Cl.N=C(N)NCCC[C@H](N)C(=O)O [ArgHCl, arginine hydrochloride] the molecule record lists Kd as 1.8
